Origin of measurements: paper PMC8699473

Exercise: for every item that follows, state its recorded Short-time stability (24h, 4°C, without daylight) Accuracy [%].
# experimentNotes: Short-term stability in spiked pooled human plasma (bench-top, 4 °C, 56 °C)
# assayContext: validation standard LLOV
Give the value, in units of %, as a plain number.

Item "COC(=O)N[C@@H](C)CNc1nccc(-c2cn(C(C)C)nc2-c2cc(Cl)cc(NS(C)(=O)=O)c2F)n1" : provide Short-time stability (24h, 4°C, without daylight) Accuracy [%]
110.1

Item "COc1cc2nccc(Oc3ccc(NC(=O)NC4CC4)c(Cl)c3)c2cc1C(N)=O" : provide Short-time stability (24h, 4°C, without daylight) Accuracy [%]
114.0

Item "CC(C)(C)c1nc(-c2cccc(NS(=O)(=O)c3c(F)cccc3F)c2F)c(-c2ccnc(N)n2)s1" : provide Short-time stability (24h, 4°C, without daylight) Accuracy [%]
112.7

Item "CN(C)C/C=C/C(=O)Nc1cc2c(Nc3ccc(F)c(Cl)c3)ncnc2cc1O[C@H]1CCOC1" : provide Short-time stability (24h, 4°C, without daylight) Accuracy [%]
85.9

Item Nc1cccc2c1CN(C1CCC(=O)NC1=O)C2=O (centres unmarked) [Lenalidomide] : provide Short-time stability (24h, 4°C, without daylight) Accuracy [%]
83.0

Item "NC(=O)c1cccc2cn(-c3ccc([C@@H]4CCCNC4)cc3)nc12" : provide Short-time stability (24h, 4°C, without daylight) Accuracy [%]
93.8

Item "C=CC(=O)Nc1cc(Nc2nccc(-c3cn(C)c4ccccc34)n2)c(OC)cc1N(C)CCN(C)C" : provide Short-time stability (24h, 4°C, without daylight) Accuracy [%]
85.8

Item "Cc1[nH]c2ccccc2c1CCNCc1ccc(/C=C/C(=O)NO)cc1" : provide Short-time stability (24h, 4°C, without daylight) Accuracy [%]
66.1
